Listed molecules paired with reported [Aurora B IC50 (nM)]/[PLK4 IC50 (nM)]
- study.system: human recombinant Aurora B (Homo sapiens (Human), UniProt Q96GD4)
- Sequence (Q96GD4 whole entry): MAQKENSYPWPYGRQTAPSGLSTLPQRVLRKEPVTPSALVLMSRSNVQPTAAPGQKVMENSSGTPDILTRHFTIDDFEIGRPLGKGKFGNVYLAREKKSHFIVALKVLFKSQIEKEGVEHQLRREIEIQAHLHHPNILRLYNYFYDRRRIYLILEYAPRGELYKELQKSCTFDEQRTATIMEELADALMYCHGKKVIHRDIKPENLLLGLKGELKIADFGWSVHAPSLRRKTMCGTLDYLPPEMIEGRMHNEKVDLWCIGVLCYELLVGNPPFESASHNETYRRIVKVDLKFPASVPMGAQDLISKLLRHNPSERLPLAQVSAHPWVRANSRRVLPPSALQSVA
- protocol.notes: Aurora B Kinase Biochemical Assay (ADP-Glo)
- cond: ratio of Aurora B IC50 to PLK4 IC50 (selectivity)
Reply with the value as a number alone.

Example entries begin here.
smiles.data	study.system	[Aurora B IC50 (nM)]/[PLK4 IC50 (nM)]
COc1ccc2c(c1)[C@]1(C[C@H]1c1ccc3c(Nc4ccc(C(=O)N5CC6CCC(C5)O6)nc4OC)n[nH]c3c1)C(=O)N2	human recombinant Aurora B (Homo sapiens (Human), UniProt Q96GD4)	176.8683
COc1ccc2c(c1)[C@]1(C[C@H]1c1ccc3c(Nc4nc(N(C)C)nc5c4CCC5)n[nH]c3c1)C(=O)N2	human recombinant Aurora B (Homo sapiens (Human), UniProt Q96GD4)	225.3871
COc1ccc2c(c1)[C@]1(C[C@H]1c1ccc3c(Nc4cc(F)c(C(=O)N(C)C)cc4OC)n[nH]c3c1)C(=O)N2	human recombinant Aurora B (Homo sapiens (Human), UniProt Q96GD4)	80.2233
COc1ccc2c(c1)[C@]1(C[C@H]1c1ccc3c(Nc4nnccc4OC)n[nH]c3c1)C(=O)N2	human recombinant Aurora B (Homo sapiens (Human), UniProt Q96GD4)	44.33
COc1ccc2c(c1)[C@]1(C[C@H]1c1ccc3c(Nc4nc(N5CC6(COC6)C5)ncc4OC)n[nH]c3c1)C(=O)N2	human recombinant Aurora B (Homo sapiens (Human), UniProt Q96GD4)	678.4625

[ask] Report [Aurora B IC50 (nM)]/[PLK4 IC50 (nM)] for CCOc1nc(C(=O)N(C)C)cnc1Nc1n[nH]c2cc([C@@H]3C[C@@]34C(=O)Nc3ccc(OC)cc34)ccc12 please.
[reply] 369

[ask] Another: COc1ccc2c(c1)[C@]1(C[C@H]1c1ccc3c(Nc4nc(Cl)nc5ccn(C)c45)n[nH]c3c1)C(=O)N2
[reply] 259.2403

[ask] Another: COc1ccc2c(c1)[C@]1(C[C@H]1c1ccc3c(Nc4cc(C(=O)N(C)C)cnc4OC)n[nH]c3c1)C(=O)N2
[reply] 3693.2418

[ask] Another: CNC(=O)c1ccc(Nc2n[nH]c3cc([C@@H]4C[C@@]45C(=O)Nc4ccc(OC)cc45)ccc23)c(OC)n1
[reply] 84.9956

[ask] Another: COc1ccc2c(c1)[C@]1(C[C@H]1c1ccc3c(Nc4nc(CC(C)(C)O)nc(N5CCOCC5)c4OC)n[nH]c3c1)C(=O)N2
[reply] 1055.053

[ask] Another: COc1ccc2c(c1)[C@]1(C[C@H]1c1ccc3c(Nc4nc(C5COC5)ncc4OC(F)F)n[nH]c3c1)C(=O)N2
[reply] 891.0891

[ask] Another: COc1ccc2c(c1)[C@]1(C[C@H]1c1ccc3c(Nc4nccnc4OC)n[nH]c3c1)C(=O)N2
[reply] 10.3

[ask] Another: COc1ccc2c(c1)[C@]1(C[C@H]1c1ccc3c(Nc4ncncc4OC)n[nH]c3c1)C(=O)N2
[reply] 11.45

[ask] Another: COc1ccc2c(c1)[C@]1(C[C@H]1c1ccc3c(Nc4nc(C)nc5c4CCC5)n[nH]c3c1)C(=O)N2
[reply] 58.0530
